test: MTT cell viability assay, non-cancer L929 cells; assay type: cell-based; settings: mouse, L929 mouse fibroblast cells (non-cancer)
Measurement kind: mortality at 30 μM

Prompt: Please look up its mortality at 30 μM: CC[C@@]1(O)C(=O)OCc2c1cc1n(c2=O)Cc2cc3ccccc3nc2-1 [CPT, Camptothecin]
Response: ~50%

---

tested on: A549 human alveolar basal epithelial cells; test: MTT cell viability and proliferation assay, A549 cells; assay type: cell-based; conditions: 24 h incubation, read-out: IC50 μM (24 h) A549
Measurement kind: IC50 (µM)
Give bare numbers, in µM.

Worked cases, answers included:
1. CN1C(Cc2ccc(O)cc2)C([N+](=O)[O-])C(c2ccccc2)C12C(=O)c1cccc3cccc2c13 (stereo not drawn) [C00001]: 84.2
2. CN1C(Cc2ccc(O)cc2)C([N+](=O)[O-])C(c2ccc(Cl)cc2)C12C(=O)c1cccc3cccc2c13 (stereo not drawn) [C00003]: 77.3
3. Cc1ccc(C2C([N+](=O)[O-])C(Cc3ccc(O)cc3)N(C)C23C(=O)c2cccc4cccc3c24)cc1 (stereo not drawn) [C00004]: 82.1
4. CN1C(Cc2ccc(O)cc2)C([N+](=O)[O-])C(c2ccc(Br)cc2)C12C(=O)c1cccc3cccc2c13 (stereo not drawn) [C00002]: 79.5
5. CN1C(Cc2ccc(O)cc2)C([N+](=O)[O-])C(c2cccc([N+](=O)[O-])c2)C12C(=O)c1cccc3cccc2c13 (stereo not drawn) [C00006]: 70.7

Okay, next one:
Prompt: Please look up its IC50: COc1ccc(C2C([N+](=O)[O-])C(Cc3ccc(O)cc3)N(C)C23C(=O)c2cccc4cccc3c24)cc1 (stereo not drawn) [5e]
Response: 55.2

Data origin, for the record: paper PMC7283928
